Observed IC50 values for Cyclin-dependent kinase 8 (Homo sapiens) are listed in what follows.
The answer is to be given in nM; state only the numeric part.

IC50 reported for this molecule CN[C@H]1CC[C@@]2(C)[C@@H](CC[C@@H]3[C@@H]2CC[C@]2(C)[C@@H](c4ccc5ccncc5c4)CC[C@@H]32)C1 : 701

IC50 reported for this molecule C[C@]12CC[C@H](O)C[C@@H]1CC[C@@H]1[C@@H]2CC[C@]2(C)[C@@H](c3ccc4ccncc4c3)CC[C@@H]12 : 201

IC50 reported for this molecule C[C@]12CC[C@H]3[C@@H](CC=C4C[C@@H](O)CC[C@@]43C)[C@@H]1CC[C@@H]2c1ccc2c(N)n[nH]c2c1 : 301

IC50 reported for this molecule C[C@]12CC[C@H](O)CC1=CC[C@@H]1[C@@H]2CC[C@]2(C)C(c3ccc4nc(N)ncc4c3)=CC[C@@H]12 : 2000

IC50 reported for this molecule C[C@]12CC[C@H]3[C@@H](CC=C4C[C@@H](O)CC[C@@]43C)[C@@H]1CC[C@@H]2c1ccc2cnccc2c1 : 2000

Continuing:
IC50 reported for this molecule C[C@]12CC[C@H](O)C[C@@H]1CC[C@@H]1[C@@H]2CC[C@]2(C)C(c3ccc4ccncc4c3)=CC[C@@H]12 : 701

IC50 reported for this molecule C[C@]12CC[C@H](O)CC1=CC[C@@H]1[C@@H]2CC[C@]2(C)C(c3ccc4ccncc4c3)=CC[C@@H]12 : 101

IC50 reported for this molecule C[C@]12CC[C@H](O)CC1=CC[C@@H]1[C@@H]2CC[C@]2(C)C(c3ccc4c(N)n[nH]c4c3)=CC[C@@H]12 : 701

IC50 reported for this molecule C[C@]12CC[C@H]3[C@@H](CC=C4C[C@@H](O)CC[C@@]43C)[C@@H]1CC[C@@H]2c1ccc2nc(N)ncc2c1 : 101

IC50 reported for this molecule CN(C)[C@H]1CC[C@@]2(C)[C@@H](CC[C@@H]3[C@@H]2CC[C@]2(C)C(c4ccc5ccncc5c4)=CC[C@@H]32)C1 : 101

IC50 reported for this molecule CN(C)[C@@H]1CC[C@@]2(C)[C@@H](CC[C@@H]3[C@@H]2CC[C@]2(C)C(c4ccc5ccncc5c4)=CC[C@@H]32)C1 : 201

IC50 reported for this molecule C[C@]12CC[C@H](N3CCOCC3)C[C@@H]1CC[C@@H]1[C@@H]2CC[C@]2(C)[C@@H](c3ccc4ccncc4c3)CC[C@@H]12 : 101

---

# tested.system: Serine/threonine-protein kinase Nek1 (Homo sapiens)
# Sequence (Q96PY6 whole entry): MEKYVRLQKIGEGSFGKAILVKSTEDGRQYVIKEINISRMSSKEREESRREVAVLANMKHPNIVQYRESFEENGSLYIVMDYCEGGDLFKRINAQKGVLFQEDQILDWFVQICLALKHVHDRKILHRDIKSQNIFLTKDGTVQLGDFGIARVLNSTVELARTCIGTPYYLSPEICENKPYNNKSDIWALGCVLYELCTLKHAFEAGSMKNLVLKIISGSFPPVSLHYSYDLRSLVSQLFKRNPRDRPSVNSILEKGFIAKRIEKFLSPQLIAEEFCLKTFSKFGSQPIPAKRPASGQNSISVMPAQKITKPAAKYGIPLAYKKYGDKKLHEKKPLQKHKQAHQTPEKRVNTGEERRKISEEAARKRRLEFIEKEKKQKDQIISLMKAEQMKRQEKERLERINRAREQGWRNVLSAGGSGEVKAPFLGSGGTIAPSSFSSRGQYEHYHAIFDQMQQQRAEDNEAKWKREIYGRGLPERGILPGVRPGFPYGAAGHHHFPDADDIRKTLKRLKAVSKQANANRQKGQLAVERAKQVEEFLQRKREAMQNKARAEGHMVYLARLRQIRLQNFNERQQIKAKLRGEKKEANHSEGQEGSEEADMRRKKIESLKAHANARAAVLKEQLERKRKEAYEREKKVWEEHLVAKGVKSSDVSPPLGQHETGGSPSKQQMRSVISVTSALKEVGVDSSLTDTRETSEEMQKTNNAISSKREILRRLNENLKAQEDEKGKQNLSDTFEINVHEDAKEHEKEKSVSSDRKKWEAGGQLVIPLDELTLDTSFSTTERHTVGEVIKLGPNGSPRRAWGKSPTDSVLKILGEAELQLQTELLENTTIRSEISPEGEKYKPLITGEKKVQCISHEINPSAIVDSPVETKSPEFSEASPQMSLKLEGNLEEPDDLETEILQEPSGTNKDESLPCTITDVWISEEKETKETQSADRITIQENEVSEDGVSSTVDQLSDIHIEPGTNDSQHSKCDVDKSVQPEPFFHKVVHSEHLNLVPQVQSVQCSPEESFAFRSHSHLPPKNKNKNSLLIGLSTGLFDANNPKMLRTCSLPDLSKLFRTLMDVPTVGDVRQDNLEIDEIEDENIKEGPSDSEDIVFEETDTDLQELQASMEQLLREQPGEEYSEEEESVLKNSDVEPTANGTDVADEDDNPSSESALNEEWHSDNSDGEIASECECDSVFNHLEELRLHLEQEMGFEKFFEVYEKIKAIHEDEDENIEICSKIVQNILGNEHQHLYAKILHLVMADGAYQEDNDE
property.name: IC50

IC50 reported for this compound CN(C)[C@H]1CC[C@@]2(C)C(=CC[C@H]3[C@@H]4CC[C@H](c5ccc6ccncc6c5)[C@@]4(C)CC[C@@H]32)C1 : > 10 µM
